- Test system: Enterococcus faecium
- Measurement Description: Antibacterial activity against vancomycin-resistant Enterococcus faecium assessed as susceptible isolates by CLSI M7-A7 broth microdilution method
- Assay type: functional

Smiles Notation	Study System	Activity
CCCCCCCCCC(=O)N[C@@H](Cc1c[nH]c2ccccc12)C(=O)N[C@H](CC(N)=O)C(=O)N[C@@H](CC(=O)O)C(=O)N[C@@H]1C(=O)NCC(=O)N[C@@H](CCCN)C(=O)N[C@@H](CC(=O)O)C(=O)N[C@H](C)C(=O)N[C@@H](CC(=O)O)C(=O)NCC(=O)N[C@H](CO)C(=O)N[C@@H]([C@H](C)CC(=O)O)C(=O)N[C@@H](CC(=O)c2ccccc2N)C(=O)O[C@@H]1C	Enterococcus faecium	100%
CC1(C)S[C@@H]2[C@H](NC(=O)Cc3ccccc3)C(=O)N2[C@H]1C(=O)O	Enterococcus faecium	0%
CC[C@H]1OC(=O)[C@H](C)[C@@H](O[C@H]2C[C@@](C)(OC)[C@@H](O)[C@H](C)O2)[C@H](C)[C@@H](O[C@@H]2O[C@H](C)C[C@H](N(C)C)[C@H]2O)[C@](C)(O)C[C@@H](C)C(=O)[C@H](C)[C@@H](O)[C@]1(C)O	Enterococcus faecium	0%
C[C@H]1COc2c(N3CCN(C)CC3)c(F)cc3c(=O)c(C(=O)O)cn1c23.C[C@H]1COc2c(N3CCN(C)CC3)c(F)cc3c(=O)c(C(=O)O)cn1c23.O	Enterococcus faecium	0%
CC(=O)NC[C@H]1CN(c2ccc(N3CCOCC3)c(F)c2)C(=O)O1	Enterococcus faecium	100%
CN[C@H](CC(C)C)C(=O)N[C@H]1C(=O)N[C@@H](CC(N)=O)C(=O)N[C@H]2C(=O)N[C@H]3C(=O)N[C@H](C(=O)N[C@H](C(=O)O)c4cc(O)cc(O)c4-c4cc3ccc4O)[C@H](O)c3ccc(c(Cl)c3)Oc3cc2cc(c3O[C@@H]2O[C@H](CO)[C@@H](O)[C@H](O)[C@H]2O[C@H]2C[C@](C)(N)[C@H](O)[C@H](C)O2)Oc2ccc(cc2Cl)[C@H]1O	Enterococcus faecium	0%

====

Listed next: entries and their corresponding log10 of MIC90.
- Test system: Streptococcus viridans
- Measurement Description: Antibacterial activity against penicillin-susceptible Streptococcus viridans by CLSI M7-A7 broth microdilution method
- Assay type: functional
Parameter Measured: log10 of MIC90 (log10 of the value in µg/mL)

Molecule	Study System	log10 of MIC90
CCO/N=C(\C(=O)N[C@@H]1C(=O)N2C(C(=O)[O-])=C(Sc3nc(-c4cc[n+](C)cc4)cs3)CS[C@H]12)c1nsc(NP(=O)(O)O)n1	Streptococcus viridans	-1.52
CC(=O)NC[C@H]1CN(c2ccc(N3CCOCC3)c(F)c2)C(=O)O1	Streptococcus viridans	0.00
CN[C@H](CC(C)C)C(=O)N[C@H]1C(=O)N[C@@H](CC(N)=O)C(=O)N[C@H]2C(=O)N[C@H]3C(=O)N[C@H](C(=O)N[C@H](C(=O)O)c4cc(O)cc(O)c4-c4cc3ccc4O)[C@H](O)c3ccc(c(Cl)c3)Oc3cc2cc(c3O[C@@H]2O[C@H](CO)[C@@H](O)[C@H](O)[C@H]2O[C@H]2C[C@](C)(N)[C@H](O)[C@H](C)O2)Oc2ccc(cc2Cl)[C@H]1O	Streptococcus viridans	-0.30
C[C@H]1COc2c(N3CCN(C)CC3)c(F)cc3c(=O)c(C(=O)O)cn1c23.C[C@H]1COc2c(N3CCN(C)CC3)c(F)cc3c(=O)c(C(=O)O)cn1c23.O	Streptococcus viridans	0.00
CC(C)(O/N=C(\C(=O)N[C@@H]1C(=O)N2C(C(=O)[O-])=C(C[n+]3ccccc3)CS[C@H]12)c1csc(N)n1)C(=O)O	Streptococcus viridans	0.60
CCCCCCCCCC(=O)N[C@@H](Cc1c[nH]c2ccccc12)C(=O)N[C@H](CC(N)=O)C(=O)N[C@@H](CC(=O)O)C(=O)N[C@@H]1C(=O)NCC(=O)N[C@@H](CCCN)C(=O)N[C@@H](CC(=O)O)C(=O)N[C@H](C)C(=O)N[C@@H](CC(=O)O)C(=O)NCC(=O)N[C@H](CO)C(=O)N[C@@H]([C@H](C)CC(=O)O)C(=O)N[C@@H](CC(=O)c2ccccc2N)C(=O)O[C@@H]1C	Streptococcus viridans	-0.30
CO/N=C(\C(=O)N[C@@H]1C(=O)N2C(C(=O)O)=C(CSc3nc(=O)c(O)nn3C)CS[C@H]12)c1csc(N)n1	Streptococcus viridans	-0.60
C[C@@H](O)[C@H]1C(=O)N2C(C(=O)O)=C(SCCNC=N)C[C@H]12 [IMIPENEM ANHYDROUS]	Streptococcus viridans	-1.22
CC[C@H]1OC(=O)[C@H](C)[C@@H](O[C@H]2C[C@@](C)(OC)[C@@H](O)[C@H](C)O2)[C@H](C)[C@@H](O[C@@H]2O[C@H](C)C[C@H](N(C)C)[C@H]2O)[C@](C)(O)C[C@@H](C)C(=O)[C@H](C)[C@@H](O)[C@]1(C)O	Streptococcus viridans	0.60

Data origin: ChEMBL document CHEMBL1671626
